# Measurement Target: Klenow fragment lacking exonuclease activity (KF exo−) (Escherichia coli, UniProt P00582, D355A/E357A)
# Construct: enzyme solution of the Klenow fragment lacking exonuclease activity (KF exo^−, Amersham USB); purchased Amersham USB
# Sequence (P00582 324-928 D355A/E357A): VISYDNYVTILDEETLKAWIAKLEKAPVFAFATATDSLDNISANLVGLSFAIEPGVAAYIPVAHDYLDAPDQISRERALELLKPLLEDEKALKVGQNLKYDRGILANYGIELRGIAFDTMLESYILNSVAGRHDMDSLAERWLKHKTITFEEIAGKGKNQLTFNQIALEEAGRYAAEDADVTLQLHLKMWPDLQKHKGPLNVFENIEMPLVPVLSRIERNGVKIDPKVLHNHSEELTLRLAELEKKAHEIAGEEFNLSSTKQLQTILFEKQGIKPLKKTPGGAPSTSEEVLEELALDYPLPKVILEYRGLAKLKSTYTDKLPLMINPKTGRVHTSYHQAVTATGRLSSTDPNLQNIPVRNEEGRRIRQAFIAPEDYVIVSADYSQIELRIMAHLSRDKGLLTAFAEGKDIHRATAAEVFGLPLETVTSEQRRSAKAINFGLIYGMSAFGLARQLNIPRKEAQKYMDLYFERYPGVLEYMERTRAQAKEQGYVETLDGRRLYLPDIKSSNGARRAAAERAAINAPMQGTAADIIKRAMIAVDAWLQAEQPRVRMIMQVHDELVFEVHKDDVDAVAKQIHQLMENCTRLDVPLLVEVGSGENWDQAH
# Type: biochemical, E. coli
# Setup Conditions: template (N) = G, temp35N-1; 37° C.
Parameter: Km (µM)
Entry rule: numbers only, all in µM.

Worked cases, answers included:
Compound | Km, µM
CC#Cc1cc(C=O)n([C@H]2C[C@H](O)[C@@H](COP(=O)(O)OP(=O)(O)OP(=O)(O)O)O2)c1 [dPa′TP] | 80
O=Cc1cccn1[C@H]1C[C@H](O)[C@@H](COP(=O)(O)OP(=O)(O)OP(=O)(O)O)O1 [dPaTP] | 140
Nc1ccn([C@H]2C[C@H](O)[C@@H](COP(=O)(O)OP(=O)(O)OP(=O)(O)O)O2)c(=O)n1 [dCTP, reference compound] | 0.24

Now consider a different compound.
What Km value was documented for this compound, Cc1cn([C@H]2C[C@H](O)[C@@H](COP(=O)(O)OP(=O)(O)OP(=O)(O)O)O2)c(=O)[nH]c1=O [dTTP, reference compound] ?
140

---

# Measurement Target: Klenow fragment lacking exonuclease activity (KF exo−) (Escherichia coli, UniProt P00582, D355A/E357A)
# Construct: enzyme solution of the Klenow fragment lacking exonuclease activity (KF exo^−, Amersham USB); purchased Amersham USB
# Assay type: biochemical, E. coli
# Setup Conditions: template (N) = Pa, temp35N-2; 37° C.
# Experimental: The single nucleotide insertion experiment was performed as described in documents (Non-patent Documents 30-32). […] The diluted products were analyzed in an automated ABI377 DNA sequencer equipped with GeneScan software (version 3.0) (Non-patent Document 32). The relative velocity (v0) was calculated by dividing the extent of reaction by the reaction time, and then normalized to the enzyme concentration (20 nM) for the various enzyme concentrations used. […]
Parameter: Vmax (% min^−1)
Entry rule: numbers only, all in % min^−1.

Worked cases, answers included:
Compound | Vmax / % min^−1
Nc1nc2c(ncn2[C@H]2C[C@H](O)[C@@H](COP(=O)(O)OP(=O)(O)OP(=O)(O)O)O2)c(=O)[nH]1 [dGTP, reference compound] | 0.42
NP(=O)(O)OP(=O)(O)OP(=O)(O)OC[C@H]1O[C@@H](n2cnc3c(-c4cccs4)ccnc32)C[C@@H]1O | 12
O=Cc1cccn1[C@H]1C[C@H](O)[C@@H](COP(=O)(O)OP(=O)(O)OP(=O)(O)O)O1 | 0.56
Nc1ncnc2c1ncn2[C@H]1C[C@H](O)[C@@H](COP(=O)(O)OP(=O)(O)OP(N)(=O)O)O1 | 2.2

What Vmax value was documented for this compound, Cc1cn([C@H]2C[C@H](O)[C@@H](COP(=O)(O)OP(=O)(O)OP(=O)(O)O)O2)c(=O)[nH]c1=O [dTTP, reference compound] ?
0.097

What Vmax value was documented for this compound, `O=P(O)(O)OP(=O)(O)OP(=O)(O)OC[C@H]1O[C@@H](n2cnc3c(-c4cccs4)ccnc32)C[C@@H]1O` ?
28

---

# Measurement Target: Klenow fragment lacking exonuclease activity (KF exo−) (Escherichia coli, UniProt P00582, D355A/E357A)
# Construct: enzyme solution of the Klenow fragment lacking exonuclease activity (KF exo^−, Amersham USB); purchased Amersham USB
# Type: biochemical, E. coli
# Setup Conditions: template (N) = Ds, temp35N-1; 37° C.
# Protocol: The single nucleotide insertion experiment was performed as described in documents (Non-patent Documents 30-32). […] The diluted products were analyzed in an automated ABI377 DNA sequencer equipped with GeneScan software (version 3.0) (Non-patent Document 32). The relative velocity (v0) was calculated by dividing the extent of reaction by the reaction time, and then normalized to the enzyme concentration (20 nM) for the various enzyme concentrations used. […]
A collection of compounds and their measured Efficiency (Vmax/KM)

Compound | Efficiency (Vmax/KM)
Nc1ncnc2c1ncn2[C@H]1C[C@H](O)[C@@H](COP(=O)(O)OP(=O)(O)OP(N)(=O)O)O1 | 3.2 × 10^2 % min^−1M^−1
Cc1cn([C@H]2C[C@H](O)[C@@H](COP(=O)(O)OP(=O)(O)OP(=O)(O)O)O2)c(=O)[nH]c1=O [dTTP, reference compound] | 1.9 × 10^3 % min^−1M^−1

Now consider a different compound.
What Efficiency (Vmax/KM) value was documented for this compound, `O=P(O)(O)OP(=O)(O)OP(=O)(O)OC[C@H]1O[C@@H](n2cnc3c(-c4cccs4)ccnc32)C[C@@H]1O` ?
2.0 × 10^5 % min^−1M^−1
